- PROCEDURE DETAILS: MELAS cybrid and Rieske KO viability enhancers – cell-based, MELAS cybrids, Rieske KO mouse fibroblasts, CellTiter-Glo, primary screen (AID 1508586);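 also: z relative to plate mean and SD of compound and empty wells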
- SETTINGS: MELAS cybrid survival, low glucose, CellTiter-Glo 48 h
Activity calls are given as the source filed them.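 The calls were made as follows: active = mean z-score across replicates of 1.96 or higher in either the MELAS or the Rieske mutant cell line; inactive = the rest.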
// allowed return values: active, inactive

Below, 3 compounds whose answers are already recorded.
>>> class_name("CC(C)(C)c1cc(NC(=O)Nc2ccc(-c3cn4c(n3)sc3cc(OCCN5CCOCC5)ccc34)cc2)no1")
"active"
>>> class_name("Cc1c(NC(=O)OCC2COCCN2)cn2ncnc(Nc3ccc4c(cnn4Cc4cccc(F)c4)c3)c12 (stereo not drawn)")
"inactive"
>>> class_name("CN(C)Cc1c(C(=O)NCCOc2ccc(C(=O)NO)cc2)oc2ccccc12")
"inactive"

Exercise: Please share the test call associated with `COc1cc2nccc(Oc3ccc(NC(=O)Nc4cc(C)on4)c(Cl)c3)c2cc1OC` .
Key: inactive

Exercise: Please share the test call associated with `CCC(=O)Nc1cccc(Oc2nc(Nc3ccc(N4CCN(C)CC4)cc3OC)ncc2Cl)c1` .
Key: inactive

Exercise: Please share the test call associated with `CN1CCC(CNc2ccc3ncc(-c4cccc(OC(F)(F)F)c4)n3n2)CC1` .
Key: inactive

Exercise: Please share the test call associated with `C=CC(=O)Nc1cc(Nc2nccc(-c3cn(C)c4ccccc34)n2)c(OC)cc1N(C)CCN(C)C` .
Key: inactive

Exercise: Please share the test call associated with `O=C1NCCc2[nH]c(-c3ccncc3)cc21` .
Key: inactive

----------
- PROCEDURE DETAILS: viability loss in pontine glioma line – cell-based, SU-DIPG-XVII, MIPE5.0, CellTiter-Glo, qHTS, dose response (AID 1347060);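 as to AC50: cells exposed to compound for 48 hours before viability readout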
- SETTINGS: CellTiter-Glo ATP luminescence
Results filed as inconclusive are left out. Activity calls are given as the source filed them. Cut-off not given; nearly all actives show AC50 up to about 26 µM.
// allowed return values: y for active, n for inactive

Below, 4 compounds whose answers are already recorded.
>>> class_name("O=S(=O)(c1cccc2c(I)cccc12)N1CCCNCC1")
"n"
>>> class_name("CN(C)Cc1c(C(=O)NCCOc2ccc(C(=O)NO)cc2)oc2ccccc12")
"y"
>>> class_name("CNC(=O)c1ccccc1Nc1nc(Nc2ccc(N3CCOCC3)cc2OC)ncc1Cl")
"y"
>>> class_name("CN(C)C/C=C/C(=O)Nc1cc2c(Nc3ccc(F)c(Cl)c3)ncnc2cc1O[C@H]1CCOC1")
"y"

Okay, next one:
Exercise: Please share the test call associated with `Cc1ccc(NC(=O)C2(c3ccc4c(c3)OC(F)(F)O4)CC2)nc1-c1cccc(C(=O)O)c1` .
Key: n

----------
- PROCEDURE DETAILS: drug combination growth inhibition, ovarian cancer – cell-based, oncology-focused library, rucaparib conditional, profiling panel (AID 1508598)
- SETTINGS: patient-derived ovarian cancer cells, CellTiter-Glo viability, 144 h; at 0.0781 µM; OCI-P5x cells; with rucaparib 20 µM; hits give low values; 100% = cells with rucaparib alone
ASSAY ENDPOINT: viability (%)
Only the number, expressed in %, is required.

>>> recorded_result("CC(C)(C)c1cnc(CSc2cnc(NC(=O)C3CCNCC3)s2)o1")
101
>>> recorded_result("CC[C@H](Nc1ncnc2nc[nH]c12)c1nc2cccc(F)c2c(=O)n1-c1ccccc1")
96.3
>>> recorded_result("COc1ccc(-c2ccc3c(N4CCOC[C@@H]4C)nc(N4CCOC[C@@H]4C)nc3n2)cc1CO")
43.6

Exercise: For the compound shown here, `COC(=O)c1ccc2c(C(=Nc3ccc(N(C)C(=O)CN4CCN(C)CC4)cc3)c3ccccc3)c(O)[nH]c2c1` , give the reported viability.
Key: 93

Exercise: For the compound shown here, `O=C(CCCCCCC(=O)Nc1ccc([C@H]2O[C@@H](CSc3nc(-c4ccccc4)c(-c4ccccc4)o3)C[C@@H](c3ccc(CO)cc3)O2)cc1)NO` , give the reported viability.
Key: 102

Exercise: For the compound shown here, `CC(C)C[C@H](NC(=O)CNC(=O)c1cc(Cl)ccc1Cl)B(O)O` , give the reported viability.
Key: 101

Exercise: For the compound shown here, `COc1ccc(-n2c(SCCCN3C(=O)c4cccc5cccc(c45)C3=O)nnc2-c2ccncc2)cc1` , give the reported viability.
Key: 95.3

----------
Entries and their viability values follow.
- PROCEDURE DETAILS: drug combination growth inhibition, ovarian cancer – cell-based, oncology-focused library, rucaparib conditional, profiling panel (AID 1508598)
- SETTINGS: patient-derived ovarian cancer cells, CellTiter-Glo viability, 144 h; at 0.00488 µM; OCI-C5x cells; with rucaparib 10 µM; hits give low values; 100% = cells with rucaparib alone
Only the number, expressed in %, is required.

See these solved cases before continuing.
>>> recorded_result("CC(/C=C/C(=O)NO)=C\\[C@@H](C)C(=O)c1ccc(N(C)C)cc1")
107
>>> recorded_result("CCN(CC)CCCCNc1ncc2cc(-c3cc(OC)cc(OC)c3)c(NC(=O)NC(C)(C)C)nc2n1")
118
>>> recorded_result("Cc1ccc2nc(NC(=O)CSc3nc4c(c(=O)n3-c3ccccc3)SCC4)sc2c1")
113

Exercise: For the molecule shown here, `CCCCCCCCc1ccc(CCC(N)(CO)CO)cc1` , give the reported viability.
Key: 101

Exercise: For the molecule shown here, `C=CC(=O)Nc1cccc(Nc2nc(Nc3ccc(NC4CN(CCF)C4)cc3OC)ncc2C(F)(F)F)c1` , give the reported viability.
Key: 123

----------
Entries and their viability values follow.
- PROCEDURE DETAILS: drug combination growth inhibition, ovarian cancer – cell-based, oncology-focused library, rucaparib conditional, profiling panel (AID 1508598)
- SETTINGS: patient-derived ovarian cancer cells, CellTiter-Glo viability, 144 h; at 5 µM; OCI-P5x cells; without rucaparib; hits give low values
Only the number, expressed in %, is required.

Exercise: For the compound shown here, `COc1cc(Nc2ncc(F)c(Nc3ccc4c(n3)NC(=O)C(C)(C)O4)n2)cc(OC)c1OC` , give the reported viability.
Key: 96.9

Exercise: For the compound shown here, `CCn1c(-c2nonc2N)nc2c(C#CC(C)(C)O)ncc(OC[C@H]3CCCNC3)c21` , give the reported viability.
Key: 68.3

Exercise: For the compound shown here, `CCN(CCO)CCCOc1ccc2c(Nc3cc(CC(=O)Nc4cccc(F)c4)[nH]n3)ncnc2c1` , give the reported viability.
Key: 58.7

Exercise: For the compound shown here, `CN(C)Cc1ccc(-c2nc3cccc4c3n2CCNC4=O)cc1` , give the reported viability.
Key: 83.9

Exercise: For the compound shown here, `CN1CCN(CCOc2cc(OC3CCOCC3)c3c(Nc4c(Cl)ccc5c4OCO5)ncnc3c2)CC1` , give the reported viability.
Key: 52.2

----------
- PROCEDURE DETAILS: viability loss in pontine glioma line – cell-based, SU-DIPG-IV, MIPE4.0, CellTiter-Glo, qHTS, dose response (AID 1347063);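 also: compound exposure lasted 48 hours before the viability readout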
- SETTINGS: CellTiter-Glo ATP luminescence
Inconclusive results are not listed. Active and inactive are the calls of the source. The limit is not given here; nearly all actives have AC50 up to about 30 µM.
// allowed return values: active, inactive

Below, 3 compounds whose answers are already recorded.
>>> class_name("NC1(c2ccc(-c3nc4ccn5c(=O)[nH]nc5c4cc3-c3ccccc3)cc2)CCC1")
"active"
>>> class_name("C[C@]12C=CC(=O)N[C@@H]1CC[C@@H]1[C@@H]2CC[C@]2(C)[C@@H](C(=O)Nc3cc(C(F)(F)F)ccc3C(F)(F)F)CC[C@@H]12")
"inactive"
>>> class_name("NC(=O)c1cccc2cn(-c3ccc([C@@H]4CCCNC4)cc3)nc12")
"inactive"

Exercise: Please share the test call associated with `Cc1cnc(Nc2cccc(CN3CCOCC3)c2)nc1Nc1cccc(S(=O)(=O)NC(C)(C)C)c1` .
Key: active

Exercise: Please share the test call associated with `COC(=O)Nc1ccc(-c2nc(N3CCOCC3)c3cnn(C4CCN(Cc5cccnc5)CC4)c3n2)cc1` .
Key: active

Exercise: Please share the test call associated with `C#Cc1cccc(Nc2ncnc3cc(OC)c(OCCCCCCC(=O)NO)cc23)c1` .
Key: active

Exercise: Please share the test call associated with COc1cccc2cc(-c3nc(C4CCC(C(=O)O)CC4)n4ncnc(N)c34)[nH]c12 (stereo not drawn) .
Key: active

Exercise: Please share the test call associated with COc1ccc(-c2oc3c(CC=C(C)C)c(OC4O[C@H](CO)[C@@H](O)[C@H](O)[C@H]4O)cc(O)c3c(=O)c2OC2O[C@@H](C)[C@H](O)[C@@H](O)[C@H]2O)cc1 (stereo partly drawn) .
Key: active

Exercise: Please share the test call associated with CC(C)C[C@H](NC(=O)CNC(=O)c1cc(Cl)ccc1Cl)B1OC(=O)CC(CC(=O)O)(C(=O)O)O1 (stereo partly drawn) .
Key: active

Exercise: Please share the test call associated with `CCC[C@@H](C=O)NC(=O)[C@H](CC(C)C)NC(=O)[C@H](CC(C)C)NC(=O)OCc1ccccc1` .
Key: active

Exercise: Please share the test call associated with `c1ccc(-c2oc3ncnc(NC[C@@H]4CCCO4)c3c2-c2ccccc2)cc1` .
Key: active

Exercise: Please share the test call associated with `CC(C)NC[C@@H](C(=O)N1CCN(c2ncnc3c2[C@H](C)C[C@H]3O)CC1)c1ccc(Cl)cc1` .
Key: active

Exercise: Please share the test call associated with `CC[C@H](CC#N)OC(=O)N[C@@H](C)c1cccc(NC(=O)Nc2ccc(-c3cnco3)c(OC)c2)c1` .
Key: active

Exercise: Please share the test call associated with `O=S(=O)(N=Cc1c(O)ccc2ccccc12)c1cccs1` .
Key: active

Exercise: Please share the test call associated with `CCNC(=O)c1noc(-c2cc(C(C)C)c(O)cc2O)c1-c1ccc(CN2CCOCC2)cc1` .
Key: active

Exercise: Please share the test call associated with `O=C1NC(=O)/C(=C\c2ccc(-c3ccc(F)cc3)o2)S1` .
Key: inactive

Exercise: Please share the test call associated with `CC(C)(O)CCc1ccc(OCc2cc(-c3cccc(OC(F)F)c3)c3ncccc3c2)cc1` .
Key: inactive

Exercise: Please share the test call associated with `NCC(=O)Nc1ccc(-n2nc(C(F)(F)F)cc2-c2ccc3c(ccc4ccccc43)c2)cc1` .
Key: active
